# SYSTEM_UNDER_TEST: T1, SH2 domain of Crkl protein (residues 1-111), H80A variant (UniProt P46109 1-111, H80A)
# T1 construct: Crkl adaptor protein, SH2 domain, residues 1-111, His80 replaced by alanine; Site-directed mutant of m1 (QuikChange); source: E. coli BL21 (DE3), purified (HisTrap nickel column, desalting); not shown: His tag, N-terminal, kept
# METHOD_NOTES: stopped-flow fluorescence kinetics (FRET); dansyl-Pax112-123 constant at 2 μM mixed with Crkl-SH2 2 to 10 μM (pseudo-first-order, kon); koff by displacement of the preincubated 2 µM complex with excess non-dansylated Pax112-123 (30 μM); 283 K; 50 mM BisTRIS pH 6.0, 0.5 M NaCl
# CONDITION_PARAMETERS: both partners purified
Square brackets hold non-standard residues; d marks the D form. Ends that are not written are not given here. * marks the point of attachment. pY = N[C@@H](Cc1ccc(OP(=O)(O)O)cc1)C(=O)O; Dansyl = CN(C)c1cccc2c(S(=O)(=O)*)cccc12
MEASURED_ATTRIBUTE: Kd (µM)
Report the value in µM with no unit label.

Given Dansyl-GEEEHV[pY]SFPNK (The dansyl group is the FRET acceptor of Trp14 of the SH2 domain; source: synthetic peptide, bought: GenScript) [dansylated Pax_(112–123) peptide (Dans-GEEEHV-pY-SFPNK)] , respond with its Kd.
3.2
